Measured pIC50 by item
Test system: SK-CO-1 cells
Assay: SK-CO-1 CTG proliferation assay (120 h) (CRC, G12V)
Type: cell-based
Conditions: Homo sapiens
# pIC50: negative log10 of molar concentration; output just the value

Examples from the recorded data:
>  <SMILES_DATA>
C[C@H](Oc1cc(O[C@H]2CCOC2)nc(-c2noc3c2CCC[C@@]32CCCc3sc(N)c(C#N)c32)n1)[C@@H]1CCCN1C

>  <SYSTEM>
SK-CO-1 cells

>  <MEASURE>
pIC50

>  <REPORTED_MEASUREMENT>
7.55

$$$$
>  <SMILES_DATA>
C[C@H](Oc1cc(OCCO)nc(-c2noc3c2CCC[C@@]32CCCc3sc(N)c(C#N)c32)n1)[C@@H]1CCCN1C

>  <SYSTEM>
SK-CO-1 cells

>  <MEASURE>
pIC50

>  <REPORTED_MEASUREMENT>
7.06

$$$$
>  <SMILES_DATA>
COCCOc1cc(O[C@@H](C)[C@@H]2CCCN2C)nc(-c2noc3c2CCC[C@@]32CCCc3sc(N)c(C#N)c32)n1

>  <SYSTEM>
SK-CO-1 cells

>  <MEASURE>
pIC50

>  <REPORTED_MEASUREMENT>
7.64

$$$$
>  <SMILES_DATA>
C[C@H](Oc1cc(N(C)CCN(C)C)nc(-c2noc3c2CCC[C@@]32CCCc3sc(N)c(C#N)c32)n1)[C@@H]1CCCN1C

>  <SYSTEM>
SK-CO-1 cells

>  <MEASURE>
pIC50

>  <REPORTED_MEASUREMENT>
6.05

$$$$

Recorded pIC50 (compound `C[C@H](Oc1cc(Nc2ccccn2)nc(-c2onc3c2CCC[C@@]32CCCc3sc(N)c(C#N)c32)n1)[C@@H]1CCCN1C` ): 6.56

Recorded pIC50 (compound `C[C@H](Oc1cc(Nc2ccncn2)nc(-c2noc3c2CCC[C@@]32CCCc3sc(N)c(C#N)c32)n1)[C@@H]1CCCN1C` ): 7.04

Recorded pIC50 (compound `C[C@H](Oc1cc(Oc2cncnc2)nc(-c2onc3c2CCC[C@@]32CCCc3sc(N)c(C#N)c32)n1)[C@@H]1CCCN1C` ): 7.54

----------
Molecular target: KRAS G12C Ba/F3 (Homo sapiens, UniProt P01116, G12C, cells depend on it)
Sequence (P01116 whole entry G12C): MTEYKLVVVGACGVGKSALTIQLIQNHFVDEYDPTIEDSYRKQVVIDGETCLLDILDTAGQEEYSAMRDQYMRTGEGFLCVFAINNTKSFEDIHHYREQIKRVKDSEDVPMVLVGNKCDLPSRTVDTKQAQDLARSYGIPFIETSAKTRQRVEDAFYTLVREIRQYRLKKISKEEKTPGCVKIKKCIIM
Assay: Ba/F3 proliferation assay, KRAS G12C
Format: cell-based
Settings: 72 h, AlamarBlue, read-out: KRAS G12C Ba/F3 IC50
Each entry falls into one class according to its GI50; the ranges are 1 (below 30 nM), 2 (30 nM to below 70 nM), 3 (70 nM or more)

Worked cases, answers included:
>  <COMPOUND>
COCCOc1cc(O[C@@H](C)[C@@H]2CCCN2C)nc(-c2noc3c2CCC[C@@]32CCCc3sc(N)c(C#N)c32)n1 [II-5]

>  <ASSIGNED_LABEL>
1

$$$$
>  <COMPOUND>
C[C@H](Oc1cc(Oc2nccs2)nc(-c2noc3c2CCC[C@@]32CCCc3sc(N)c(C#N)c32)n1)[C@@H]1CCCN1C [II-2]

>  <ASSIGNED_LABEL>
1

$$$$
>  <COMPOUND>
C[C@H](Oc1cc(OCC2(N(C)C)COC2)nc(-c2noc3c2CCC[C@@]32CCCc3sc(N)c(C#N)c32)n1)[C@@H]1CCCN1C [II-22]

>  <ASSIGNED_LABEL>
1

$$$$
>  <COMPOUND>
C[C@H](Oc1cc(Nc2cccnn2)nc(-c2noc3c2CCC[C@@]32CCCc3sc(N)c(C#N)c32)n1)[C@@H]1CCCN1C [II-18]

>  <ASSIGNED_LABEL>
2

$$$$
>  <COMPOUND>
C[C@H](Oc1cc(OCC2(N(C)C)COC2)nc(-c2onc3c2CCC[C@@]32CCCc3sc(N)c(C#N)c32)n1)[C@@H]1CCCN1C [Example I-8]

>  <ASSIGNED_LABEL>
2

$$$$
>  <COMPOUND>
C[C@H]1CN(C)CCCN1c1cc(O[C@@H]2CNC2(C)C)nc(-c2noc3c2CCC[C@@]32CCCc3sc(N)c(C#N)c32)n1 [II-28]

>  <ASSIGNED_LABEL>
3

$$$$

Input: Form: Item = C[C@H](Oc1cc(O[C@@H]2CNC2(C)C)nc(-c2noc3c2CCC[C@@]32CCCc3sc(N)c(C#N)c32)n1)[C@@H]1C[C@@H](F)CN1C [II-31] ; Class = ?
Output: 3

Input: Form: Item = C[C@H](Oc1cc(Nc2ccncn2)nc(-c2noc3c2CCC[C@@]32CCCc3sc(N)c(C#N)c32)n1)[C@@H]1CCCN1C [II-15] ; Class = ?
Output: 1

Input: Form: Item = C[C@H](Oc1cc(Nc2nccs2)nc(-c2noc3c2CCC[C@@]32CCCc3sc(N)c(C#N)c32)n1)[C@@H]1CCCN1C [II-12] ; Class = ?
Output: 2

Input: Form: Item = C[C@H](Oc1cc(Nc2ccccn2)nc(-c2noc3c2CCC[C@@]32CCCc3sc(N)c(C#N)c32)n1)[C@@H]1CCCN1C [II-16] ; Class = ?
Output: 1

Input: Form: Item = C[C@H](Oc1cc(O[C@@H]2CNC2(C)C)nc(-c2noc3c2CCC[C@@]32CCCc3sc(N)c(C#N)c32)n1)[C@@H]1CCCN1C [II-9] ; Class = ?
Output: 3

Input: Form: Item = C[C@H](Oc1cc(OCC2(N(C)C)CC2)nc(-c2noc3c2CCC[C@@]32CCCc3sc(N)c(C#N)c32)n1)[C@@H]1CCCN1C [II-21] ; Class = ?
Output: 3

----------
Biological target: KRAS (G12D)::SOS1 (Homo sapiens, UniProt P01116, G12D)
Construct: KRAS (G12D) 1-169, N-terminal 6His-tag, C-terminal avi-tag; 6His-tag (N); Viva Biotech Ltd (SOS1)
Sequence (P01116 1-169 isoform P01116-2 G12D): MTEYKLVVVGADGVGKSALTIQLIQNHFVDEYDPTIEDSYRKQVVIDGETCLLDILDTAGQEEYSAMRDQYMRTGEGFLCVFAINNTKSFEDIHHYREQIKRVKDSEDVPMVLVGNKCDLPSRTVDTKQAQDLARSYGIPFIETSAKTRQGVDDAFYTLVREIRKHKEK
Test: KRAS::SOS1 AlphaScreen binding assay, KRAS G12D
Conditions: read-out: KRASG12D IC50
Threshold 2 nM: IC50 strictly smaller gives 1.0, otherwise 0.0.

Worked cases, answers included:
>  <MOLECULE>
C[C@H]1CN(C)CCCN1c1cc(O[C@@H]2CNC2(C)C)nc(-c2noc3c2CCC[C@@]32CCCc3sc(N)c(C#N)c32)n1 [II-28]

>  <ASSIGNED_LABEL>
1.0

$$$$
>  <MOLECULE>
C[C@H](Oc1cc(OCC2(N(C)C)CC2)nc(-c2noc3c2CCC[C@@]32CCCc3sc(N)c(C#N)c32)n1)[C@@H]1CCCN1C [II-21]

>  <ASSIGNED_LABEL>
1.0

$$$$
>  <MOLECULE>
C[C@H](Oc1cc(Oc2cnccn2)nc(-c2noc3c2CCC[C@@]32CCCc3sc(N)c(C#N)c32)n1)[C@@H]1CCCN1C [II-7]

>  <ASSIGNED_LABEL>
1.0

$$$$

Input: Consider C[C@H](Oc1cc(Sc2ncccn2)nc(-c2onc3c2CCC[C@@]32CCCc3sc(N)c(C#N)c32)n1)[C@@H]1CCCN1C [Example I-7] . Does its IC50 lie strictly below 2 nM?
Output: 0.0

Input: Consider C[C@H](Oc1cc(Nc2cnccn2)nc(-c2noc3c2CCC[C@@]32CCCc3sc(N)c(C#N)c32)n1)[C@@H]1CCCN1C [II-14] . Does its IC50 lie strictly below 2 nM?
Output: 0.0

Input: Consider C[C@H](Oc1cc(N[C@H]2CCOC2)nc(-c2onc3c2CCC[C@@]32CCCc3sc(N)c(C#N)c32)n1)[C@@H]1CCCN1C [Example I-4] . Does its IC50 lie strictly below 2 nM?
Output: 0.0

Input: Consider C[C@H](Oc1cc(Nc2ccccn2)nc(-c2noc3c2CCC[C@@]32CCCc3sc(N)c(C#N)c32)n1)[C@@H]1CCCN1C [II-16] . Does its IC50 lie strictly below 2 nM?
Output: 0.0

----------
Test system: SK-CO-1 cells
Test: SK-CO-1 CTG proliferation assay (120 h) (CRC, G12V)
Assay type: cell-based
Details: Homo sapiens
MEASURE: IC50 (nM)
# unit: nM | format: bare number

>  <MOLECULE>
C[C@H](Oc1cc(OCC2(N(C)C)COC2)nc(-c2noc3c2CCC[C@@]32CCCc3sc(N)c(C#N)c32)n1)[C@@H]1CCCN1C

>  <UNIT_TEXT>
nM

>  <REPORTED_MEASUREMENT>
354

$$$$
>  <MOLECULE>
C[C@H](Oc1cc(Nc2cccnn2)nc(-c2noc3c2CCC[C@@]32CCCc3sc(N)c(C#N)c32)n1)[C@@H]1CCCN1C

>  <UNIT_TEXT>
nM

>  <REPORTED_MEASUREMENT>
133

$$$$

Recorded IC50 (molecule C[C@H](Oc1cc(O[C@H]2CNC(C)(C)C2)nc(-c2noc3c2CCC[C@@]32CCCc3sc(N)c(C#N)c32)n1)[C@@H]1CCCN1C (single isomer, unassigned) ): 774
